Where do these numbers come from? They come from patent US20110256241A1.

# Test system: Primary BEC (human primary bronchial epithelial cells)
# PROTOCOL_DETAILS: Cell proliferation assay (MTT)
# Assay type: cell-based
# EXPERIMENTAL_SETUP: 48 h, inhibitor and unit not printed in table (MN58b, μM), read-out: IC50 48 h
READOUT_KIND: IC 50 (µM)
Give the value, in units of µM, as a plain number.

# input Find the recorded IC 50 belonging to CN(C)c1cc[n+](Cc2ccc(CCCCc3ccc(C[n+]4ccc(N(C)C)cc4)cc3)cc2)cc1 [MN58b] and report it.
# output 40.5
